Recorded kon values for a group of binders are listed next.
Target: T1, recombinant human TIGIT (human, UniProt Q495A1 22-141, limits assumed)
T1 construct: recombinant human TIGIT used in Carterra SPR; also called hTIGIT
T1 sequence (looked up): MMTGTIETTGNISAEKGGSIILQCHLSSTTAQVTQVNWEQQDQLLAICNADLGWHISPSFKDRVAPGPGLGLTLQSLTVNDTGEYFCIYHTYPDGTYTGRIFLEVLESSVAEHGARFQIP
Assay: SPR Carterra, average
Experimental: Binding affinities of VHH-Fc proteins to recombinant human TIGIT were measured by SPR using a Carterra instrument (Table 10A). […] Average values reported from measurements from 1-2 samples.
Please give a number only; it is taken to be in M⁻¹ s⁻¹.

Please review the following examples before continuing.
BINDER	kon [M⁻¹ s⁻¹]
TIGIT-SC122 (Fc fusion, VHH-Fc fusion in assay) VHH: EVQLVESGGGLVQPGGSLRLSCAASGFSFDDYVMGWFRQAPGKEREFVAAISMSGGYTHYADSVKGRFTISADNSKNTAYLQMNSLKPEDTAVYYCAREGYYGSGSYLVYWGQGTLVTVSS	524000
TIGIT-SC139 (Fc fusion, VHH-Fc fusion in assay) VHH: EVQLVESGGGLVQPGGSLRLSCAASGFTLENNMMGWFRQAPGKEREFVAAISRSGTLKAYADSVKGRFTISADNSKNTAYLRMNSLKPEDTAVYYCAGLTSGGAFSYYWGQGTLVTVSS	141000
TIGIT-SC45 (Fc fusion, VHH-Fc fusion in assay) VHH: EVQLVESGGGLVQPGGSLRLSCAASGGTFNAMGWFRQAPGKEREWVASVLRGGYTWYADSVKGRFTISADNSKNTAYLQMNSLKPEDTAVYYCAKDGGSSGTYQNWWGQGTLVTVSS	89900

Now consider the entry below.
For the binder shown here, TIGIT-SC99 (Fc fusion, VHH-Fc fusion in assay) VHH: EVQLVESGGGLVQPGGSLRLSCAASGSIFSMNTMGWFRQAPGKEREFVGAINWSGGSTIYADSVKGRFTISADNSKNTAYLQMNSLKPEDTAVYYCARWDYDILTNYYWLEYWGQGTLVTVSS , give the reported kon.
81600
